- Subject Of Test: Gamma-aminobutyric acid receptor subunit alpha-6 (Rattus norvegicus)
- Sequence (P30191 whole entry): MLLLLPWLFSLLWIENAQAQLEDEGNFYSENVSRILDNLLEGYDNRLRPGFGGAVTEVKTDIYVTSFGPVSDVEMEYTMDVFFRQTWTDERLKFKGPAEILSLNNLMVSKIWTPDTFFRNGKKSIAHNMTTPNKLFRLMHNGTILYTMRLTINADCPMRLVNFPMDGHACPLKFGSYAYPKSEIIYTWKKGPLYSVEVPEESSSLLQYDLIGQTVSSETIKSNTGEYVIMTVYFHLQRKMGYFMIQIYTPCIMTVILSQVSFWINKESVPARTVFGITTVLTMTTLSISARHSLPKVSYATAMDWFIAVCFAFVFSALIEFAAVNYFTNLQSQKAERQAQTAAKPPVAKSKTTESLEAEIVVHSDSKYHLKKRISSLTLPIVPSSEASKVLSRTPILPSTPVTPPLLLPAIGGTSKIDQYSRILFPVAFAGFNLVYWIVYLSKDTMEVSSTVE
Result Type: Ki

Please fill in: Ki reported for C[C@]12CC[C@H]3[C@@H](CC[C@@H]4C[C@@](O)(C(F)(F)F)CC[C@@H]43)[C@@H]1CC[C@@H]2C(=O)CO = 2000 nM

###

Assay read-out Ki; system under study: Gamma-aminobutyric acid receptor subunit alpha-2 (Rattus norvegicus, UniProt P23576).
Sequence (P23576 whole entry): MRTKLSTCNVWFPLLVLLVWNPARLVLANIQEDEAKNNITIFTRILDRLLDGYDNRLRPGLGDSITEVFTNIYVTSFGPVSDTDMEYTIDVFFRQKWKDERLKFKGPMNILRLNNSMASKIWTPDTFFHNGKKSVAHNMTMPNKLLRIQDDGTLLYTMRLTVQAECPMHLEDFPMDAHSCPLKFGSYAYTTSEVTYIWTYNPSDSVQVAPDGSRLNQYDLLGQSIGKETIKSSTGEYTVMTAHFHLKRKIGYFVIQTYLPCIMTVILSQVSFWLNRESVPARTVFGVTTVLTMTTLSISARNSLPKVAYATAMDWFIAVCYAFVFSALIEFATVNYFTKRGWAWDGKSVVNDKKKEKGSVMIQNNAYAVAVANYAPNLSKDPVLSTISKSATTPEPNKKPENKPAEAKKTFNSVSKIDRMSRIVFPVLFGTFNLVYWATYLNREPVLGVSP
Kindly provide the numeric value in nM only, without the unit symbol.

>>> print(df.to_string())
                                   molecule  result_type  measured_result
0  CC(=O)C1CCC2C3CC[C@H]4C[C@H](O)CC[C@]4(C)C3CC[C@]12C (some centres not stated)           Ki               41

Let us move to another entry and its Ki.
Please fill in: Ki reported for C[C@]12CC[C@H]3[C@@H](CC[C@@H]4C[C@@](O)(C(F)(F)F)CC[C@@H]43)[C@@H]1CC[C@@H]2C(=O)CO = 200

###

Assay read-out pKi; system under study: Gamma-aminobutyric acid receptor subunit alpha-5 (Rattus norvegicus, UniProt P19969).
Sequence (P19969 whole entry): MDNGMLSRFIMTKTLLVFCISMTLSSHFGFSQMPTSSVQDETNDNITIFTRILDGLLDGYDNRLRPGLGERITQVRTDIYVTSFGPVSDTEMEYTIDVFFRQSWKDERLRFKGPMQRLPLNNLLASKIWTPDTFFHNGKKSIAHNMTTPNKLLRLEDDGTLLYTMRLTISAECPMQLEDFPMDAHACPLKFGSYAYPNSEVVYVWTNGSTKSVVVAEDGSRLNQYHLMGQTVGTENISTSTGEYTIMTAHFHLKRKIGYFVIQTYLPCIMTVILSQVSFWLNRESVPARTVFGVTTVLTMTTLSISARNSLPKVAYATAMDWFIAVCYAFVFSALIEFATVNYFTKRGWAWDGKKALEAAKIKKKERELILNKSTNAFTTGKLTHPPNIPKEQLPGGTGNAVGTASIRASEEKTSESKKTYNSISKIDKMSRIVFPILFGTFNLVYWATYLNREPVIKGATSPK
To interpret pKi, take it as minus log10 of a concentration measured in moles per litre.

                                   molecule  measured_result
0  CC(=O)C1CCC2C3CC[C@H]4C[C@H](O)CC[C@]4(C)C3CC[C@]12C (some centres not stated)             7.68

Let us move to another entry and its pKi.
Entry C[C@]12CC[C@H]3[C@@H](CC[C@@H]4C[C@@](O)(C(F)(F)F)CC[C@@H]43)[C@@H]1CC[C@@H]2C(=O)CO under Gamma-aminobutyric acid receptor subunit alpha-5 (Rattus norvegicus, UniProt P19969) had pKi of 6.68
